Target: human Cat S (Homo sapiens (Human), UniProt P25774)
Sequence (P25774 115-331): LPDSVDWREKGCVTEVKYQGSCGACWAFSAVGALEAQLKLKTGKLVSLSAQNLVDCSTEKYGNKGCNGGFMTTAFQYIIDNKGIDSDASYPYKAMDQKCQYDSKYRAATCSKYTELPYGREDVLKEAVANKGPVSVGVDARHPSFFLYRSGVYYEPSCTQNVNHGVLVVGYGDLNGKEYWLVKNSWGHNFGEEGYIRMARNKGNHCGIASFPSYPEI
property_name: IC50 (nM)
One number for each entry, in nM.

| molecular_string | IC50 (nM) |
| --- | --- |
| CCOc1cc(F)c(F)cc1-c1ccc(S(=O)(=O)[C@@H]2C[C@@H](C(=O)NC3(C#N)CC3)N(C(=O)C3(C(F)(F)F)CC3)C2)c(C)c1 | 1.46 |
| Cc1ncnn1-c1ccc(S(=O)(=O)[C@@H]2C[C@@H](C(=O)NC3(C#N)CC3)N(C(=O)C3(C(F)(F)F)CC3)C2)c(C(F)(F)F)c1 | 0.54 |
| Cc1ncc(-c2ccc(S(=O)(=O)[C@@H]3C[C@@H](C(=O)NC4(C#N)CC4)N(C(=O)C4(C(F)(F)F)CC4)C3)c(C)c2)s1 | 0.613 |
| N#CC1(NC(=O)[C@@H]2C[C@@H](S(=O)(=O)c3ccc(-n4cncn4)cc3-n3cncn3)CN2C(=O)C2(C(F)(F)F)CC2)CC1 | 12.6 |
| N#CC1(NC(=O)[C@@H]2C[C@@H](S(=O)(=O)c3ccc(-c4c[nH]nc4C(F)(F)F)cc3C(F)(F)F)CN2C(=O)C2(C(F)(F)F)CC2)CC1 | 2.42 |

API: the following record is the query input.
-- ask Query IC50 on human Cat S (Homo sapiens (Human), UniProt P25774) for "Cc1nc(C)c(-c2ccc(S(=O)(=O)[C@@H]3C[C@@H](C(=O)NC4(C#N)CC4)N(C(=O)C4(C(F)(F)F)CC4)C3)c(C(F)(F)F)c2)s1"
-- reply 1.17
